# experiment_notes: CREB reporter modulators without forskolin, primary screen, cell-based, PC12, CRE-LacZ reporter, unstimulated (AID 1145)
# condition_notes: no forskolin, luminescence, 4.5 h, higher = more signal, called active from +8 up or from −8 down
Here, each record is paired with measured z-score data.

>  <molecule>
Cc1ccc(S(=O)(=O)c2cc3oc2CC[C@@H](CO)NC(=O)N(C)Cc2cn(nn2)C[C@H](Cc2ccccc2)NC3=O)cc1

>  <z-score>
-0.332

$$$$
>  <molecule>
O=C1O[C@@H](c2ccccc2)[C@@H](c2ccccc2)N2[C@@H](c3ccc(O)cc3)[C@]3(C(=O)Nc4ccccc43)[C@@H](C(=O)N3CCN(c4ncccn4)CC3)[C@H]12

>  <z-score>
-0.815

$$$$
>  <molecule>
Cc1ccc(N2C(=O)c3ccccc3[C@@H](C(=O)NCC(F)(F)F)[C@@H]2c2ccc(CO)cc2)nc1

>  <z-score>
0.791

$$$$
>  <molecule>
CCOC(=O)C1=CCC(c2cccc3ccccc23)N(S(=O)(=O)c2ccc(C)cc2)C1 (centres undefined)

>  <z-score>
-0.826

$$$$
